tested on: tumor cells that have K-RAS mutations and/or PTEN or mismatch repair gene deficiencies; assay: Growth inhibition, summary of potency in text; format: cell-based, human; settings: among the three compounds tested, tumor cell lines
pIC50: −log10 of the molar value.
VALUE TYPE: pIC50

Problem: Please list pIC50 recorded for the compound COc1cc2c(cc1OCCCC(=O)Nc1ccc3ccc4cccc5ccc1c3c45)N=C[C@@H]1CCCN1C2=O [NSC 726260]
Result: ~6.00

---

Test system: yeast rad50 mutation
Assay: Alamar Blue cell survival assay in yeast cells
Type: cell-based
Method: The cells are diluted 100-fold in yeast complete medium. 100 μL of diluted cells are seeded in 96 well plates with or without a non-covalent DNA binding compound and incubated for 24 hours at 30° C. The following day, an equal volume of yeast complete medium containing 1% alamar blue is added and incubated at 30° C. for two hours. Fluorescence intensity is measured in a fluorescent reader to calculate the inhibition effect of non-covalent DNA binding agents in mutant and wild type yeast cells. […]
Item-by-item account of IC50

1) COc1cc2c(cc1OCCCCN1CCN(CCCCOc3cc4c(cc3OC)C(=O)N3CCC[C@H]3C=N4)CC1)N=C[C@@H]1CCCN1C2=O
17 µM
2) COc1cc2c(cc1OCCCC(=O)Nc1ccc3ccc4cccc5ccc1c3c45)N=C[C@@H]1CCCN1C2=O
20 µM
3) COc1cc2c(cc1OCCCCOc1cc(-c3ccc(F)cc3)nc(C)n1)N=C[C@@H]1CCCN1C2=O
> 250 µM

Problem: // fetch IC50; item: `COc1cc2c(cc1OCCCCCOc1cc3c(cc1OC)C(=O)N1CCC[C@H]1C(=O)N3)N=C[C@@H]1CCCN1C2=O` ; system: yeast rad50 mutation
Result: 90 µM

---

system: MDA231; experiment: Growth inhibition in tumor cell lines (Table 2); type: cell-based, human; conditions: MDA231, breast, KRAS & BRAF (ERK+)
VALUE TYPE: IC50 (µM)
Provide the reading as a plain figure in µM.

Answered cases to consult:
1. COc1cc2c(cc1OCCCCCOc1cc3c(cc1OC)C(=O)N1CCC[C@H]1C(=O)N3)N=C[C@@H]1CCCN1C2=O
0.054
2. COc1cc2c(cc1OCCCC(=O)Nc1ccc3ccc4cccc5ccc1c3c45)N=C[C@@H]1CCCN1C2=O
0.501

Next molecule, IC50 to be filled in.
Problem: Please list IC50 recorded for the molecule `COc1cc2c(cc1OCCCCN1CCN(CCCCOc3cc4c(cc3OC)C(=O)N3CCC[C@H]3C=N4)CC1)N=C[C@@H]1CCCN1C2=O`
Result: 0.394

---

Item-by-item account of Fold improvement in IC50, mlh1
system: U2OS Wild type; test: siRNA inhibition of MMR, p53 and REV functions, alamar blue growth inhibition; assay type: cell-based, human; conditions: mlh1 siRNA vs control

Answered cases to consult:
1. COc1cc2c(cc1OCCCC(=O)Nc1ccc3ccc4cccc5ccc1c3c45)N=C[C@@H]1CCCN1C2=O
135 fold
2. COc1cccc2c1C(=O)c1c(O)c3c(c(O)c1C2=O)C[C@@](O)(C(=O)CO)C[C@@H]3OC1CC(N)C(O)C(C)O1 (stereo partly shown) [Doxorubicin, reference compound]
0.23 fold
3. COc1cc2c(cc1OCCCCN1CCN(CCCCOc3cc4c(cc3OC)C(=O)N3CCC[C@H]3C=N4)CC1)N=C[C@@H]1CCCN1C2=O
3.5 fold

Next compound, Fold improvement in IC50, mlh1 to be filled in.
Problem: Please list Fold improvement in IC50, mlh1 recorded for the compound `COc1cc2c(cc1OCCCCCOc1cc3c(cc1OC)C(=O)N1CCC[C@H]1C(=O)N3)N=C[C@@H]1CCCN1C2=O`
Result: 3.0 fold

---

system: HCT116 (mlh−); assay: siRNA inhibition of p53 and REV functions, alamar blue growth inhibition; format: cell-based, human; details: rev siRNA vs control
VALUE TYPE: Fold improvement in IC50, rev (fold)
Provide the reading as a plain figure in fold.

Answered cases to consult:
1) COc1cc2c(cc1OCCCC(=O)Nc1ccc3ccc4cccc5ccc1c3c45)N=C[C@@H]1CCCN1C2=O
5.0
2) COc1cc2c(cc1OCCCCCOc1cc3c(cc1OC)C(=O)N1CCC[C@H]1C(=O)N3)N=C[C@@H]1CCCN1C2=O
7.1
3) CC[C@@]1(O)C(=O)OCc2c1cc1n(c2=O)Cc2cc3ccccc3nc2-1 [Camptothecin, reference compound]
1.7

Next compound, Fold improvement in IC50, rev to be filled in.
Problem: Please list Fold improvement in IC50, rev recorded for the compound `COc1cc2c(cc1OCCCCN1CCN(CCCCOc3cc4c(cc3OC)C(=O)N3CCC[C@H]3C=N4)CC1)N=C[C@@H]1CCCN1C2=O`
Result: 2.2

---

Item-by-item account of IC50
tested on: SW480; experiment: Growth inhibition in tumor cell lines (Table 2); type: cell-based, human; details: SW480, colon, KRAS mutation
Provide the reading as a plain figure in µM.

Problem: Please list IC50 recorded for the compound `COc1cc2c(cc1OCCCCN1CCN(CCCCOc3cc4c(cc3OC)C(=O)N3CCC[C@H]3C=N4)CC1)N=C[C@@H]1CCCN1C2=O`
Result: 0.575

Problem: Please list IC50 recorded for the compound `COc1cc2c(cc1OCCCC(=O)Nc1ccc3ccc4cccc5ccc1c3c45)N=C[C@@H]1CCCN1C2=O`
Result: 1.07

Problem: Please list IC50 recorded for the compound `COc1cc2c(cc1OCCCCCOc1cc3c(cc1OC)C(=O)N1CCC[C@H]1C(=O)N3)N=C[C@@H]1CCCN1C2=O`
Result: 0.048

---

Item-by-item account of pIC50
tested on: yeast rad52 mutation; assay: Alamar Blue cell survival assay in yeast cells; type: cell-based
Entry type: numeric. Quantity: pIC50, the -log10 of concentration in molar units.

Answered cases to consult:
1. COc1cc2c(cc1OCCCC(=O)Nc1ccc3ccc4cccc5ccc1c3c45)N=C[C@@H]1CCCN1C2=O [NSC 726260]
4.82
2. COc1cc2c(cc1OCCCCN1CCN(CCCCOc3cc4c(cc3OC)C(=O)N3CCC[C@H]3C=N4)CC1)N=C[C@@H]1CCCN1C2=O [NSC 723734]
4.30
3. COc1cc2c(cc1OCCCCCOc1cc3c(cc1OC)C(=O)N1CCC[C@H]1C(=O)N3)N=C[C@@H]1CCCN1C2=O [NSC 718813]
4.05

Problem: Please list pIC50 recorded for the compound COc1cc2c(cc1OCCCCOc1cc(-c3ccc(F)cc3)nc(C)n1)N=C[C@@H]1CCCN1C2=O [NSC 723732]
Result: 3.98

---

System: U2OS Wild type
Assay: siRNA inhibition of MMR, p53 and REV functions, alamar blue growth inhibition
Format: cell-based, human
Details: no siRNA knock out, read-out: IC50, Control
Description: siRNA specific for different genes is purchased from Dharmacon (Thermo. Fisher Scientific Dharmacon Products, Lafayette, Colo. 80026) and the protocol recommended by the supplier is utilized. Confluent cells are trypsinized and 5000 cells are seeded in a well in the presence or absence of siRNA in 100 μL medium. The cells are incubated with siRNA for two days. […] After treatment with the agent, the medium is replaced with 1% alamar blue containing medium to measure fluorescence after two hours. […]
VALUE TYPE: IC50 (µM)
Provide the reading as a plain figure in µM.

Answered cases to consult:
1. COc1cc2c(cc1OCCCCCOc1cc3c(cc1OC)C(=O)N1CCC[C@H]1C(=O)N3)N=C[C@@H]1CCCN1C2=O
0.3
2. COc1cc2c(cc1OCCCC(=O)Nc1ccc3ccc4cccc5ccc1c3c45)N=C[C@@H]1CCCN1C2=O
0.4

Next compound, IC50 to be filled in.
Problem: Please list IC50 recorded for the compound `COc1cc2c(cc1OCCCCN1CCN(CCCCOc3cc4c(cc3OC)C(=O)N3CCC[C@H]3C=N4)CC1)N=C[C@@H]1CCCN1C2=O`
Result: 0.07

---

system: HCT116; experiment: Growth inhibition in tumor cell lines (Table 2); format: cell-based, human; settings: HCT116, colon, KRAS mutation, MLH1 deficiency
VALUE TYPE: IC50 (nM)
Provide the reading as a plain figure in nM.

Answered cases to consult:
1) COc1cc2c(cc1OCCCCCOc1cc3c(cc1OC)C(=O)N1CCC[C@H]1C(=O)N3)N=C[C@@H]1CCCN1C2=O
17
2) COc1cc2c(cc1OCCCCN1CCN(CCCCOc3cc4c(cc3OC)C(=O)N3CCC[C@H]3C=N4)CC1)N=C[C@@H]1CCCN1C2=O
160

Next molecule, IC50 to be filled in.
Problem: Please list IC50 recorded for the molecule `COc1cc2c(cc1OCCCC(=O)Nc1ccc3ccc4cccc5ccc1c3c45)N=C[C@@H]1CCCN1C2=O`
Result: 550

Each recorded value in this set is attributed to patent US9744175B2.
